# Test system: A549 (NSCLC) cells
# Procedure summary: Anti-proliferative activity, Cell-Titre luminescent viability assay
# Assay type: cell-based
# Conditions: Homo sapiens, 72 h exposure, Cell-Titre luminescent reagent
pIC50: −log10 of the molar value.
Measured attribute: pIC50

[[record]]
molecule = "CC(C)(C)c1ccc(S(=O)(=O)n2ccc(C(=O)NCCc3ccc(C(F)(F)F)cc3)c2)cc1"
assayed_system = "A549 (NSCLC) cells"
result = "< 4.52"

[[record]]
molecule = "Cc1ccccc1NC(=O)C1CCN(S(=O)(=O)c2ccc3[nH]ccc3c2)CC1"
assayed_system = "A549 (NSCLC) cells"
result = "< 4.52"

[[record]]
molecule = "Cc1ccc(NC(=O)c2ccn(S(=O)(=O)c3ccc4c(c3)CCN4)c2)cc1O"
assayed_system = "A549 (NSCLC) cells"
result = "< 4.00"

[[record]]
molecule = "COc1ccc(NC(=O)c2ccn(S(=O)(=O)c3ccc4[nH]ccc4c3)n2)cc1"
assayed_system = "A549 (NSCLC) cells"
result = "< 4.52"


Prompt: For the record O=C(Nc1ccc(Cl)c(F)c1)c1ccn(S(=O)(=O)c2ccc3[nH]ccc3c2)n1 , what value of pIC50 is listed for A549 (NSCLC) cells?
Response: < 4.52

Prompt: For the record Cc1ccc(NC(=O)c2ccn(S(=O)(=O)c3ccc4[nH]ccc4c3)c2)cc1O , what value of pIC50 is listed for A549 (NSCLC) cells?
Response: < 4.00

====

Here the recorded IC50 is given for each entry.
# Tested on: A549 (NSCLC) cells
# Procedure summary: Anti-proliferative activity, Cell-Titre luminescent viability assay
# Assay type: cell-based
# Conditions: Homo sapiens, 72 h exposure, Cell-Titre luminescent reagent

[[record]]
compound = "CCC(C)c1ccc(NC(=O)c2ccn(S(=O)(=O)c3ccc(C(C)(C)C)cc3)c2)cc1 (stereo not shown)"
result = "> 30 µM"

[[record]]
compound = "O=C(Nc1ccc(F)nc1)c1ccn(S(=O)(=O)c2ccc3[nH]ccc3c2)n1"
result = "> 30 µM"

[[record]]
compound = "O=C(Nc1ccc(F)cn1)c1ccn(S(=O)(=O)c2ccc3[nH]ccc3c2)n1"
result = "> 30 µM"


Proceeding to the next compound to report its IC50.
Prompt: For the record CCC(C)c1ccc(NC(=O)C2CCN(S(C)(=O)=O)CC2)cc1 (stereo not shown) , what value of IC50 is listed for A549 (NSCLC) cells?
Response: > 100 µM
